ASSAY_TARGET: N. kaouthia crude venom hyaluronidase
MEASUREMENT_DESCRIPTION: Hyaluronidase activity assay, N. kaouthia crude venom
CONDITION: 6.75 μg venom, pre-incubation 5-10 min; Example 1
MEASUREMENT_NAME: pIC50
// scale note: pIC50 = -log10(conc_M); give the bare number

pIC50 for O=C([O-])CC([S-])C(=O)[O-].[Au+].[Na+].[Na+] (stereo not shown) [Sodium aurothiomalate, sodium aurothiomalate] ?
4.38

* * *

ASSAY_TARGET: N. kaouthia crude venom PLA2
MEASUREMENT_DESCRIPTION: Phospholipase A2 activity assay (EnzChek), N. kaouthia crude venom
CONDITION: 0.4 μg venom; 10 minute time point; Example 1
MEASUREMENT_NAME: IC50 (µM)
Express your answer in µM, writing the number without its unit.

- CC1=C(CC/C(C)=C/CCC2=CC[C@H](C3=CC(=O)O[C@H]3O)O[C@H]2O)C(C)(C)CCC1 [Manoalide]: 777

Let us move to another entry and its IC50.
IC50 for `Cc1ccc(C(=O)Nc2ccc(S(=O)(=O)O)c3cc(S(=O)(=O)O)cc(S(=O)(=O)O)c23)cc1NC(=O)c1cccc(NC(=O)Nc2cccc(C(=O)Nc3cc(C(=O)Nc4ccc(S(=O)(=O)O)c5cc(S(=O)(=O)O)cc(S(=O)(=O)O)c45)ccc3C)c2)c1` ?
1520
